# System: Echinochloa oryzicola
# Assay Text: Herbicidal activity against Echinochloa oryzicola assessed as dose required to cause sufficient herbicidal activity
# Assay type: functional
Readout Label: MED

Some solved entries appear below for comparison.
COc1nc(NC(=O)NS(=O)(=O)c2ccoc2COCCF)nc(OC)n1    1.25 g/acre
COc1cc(OC)nc(NC(=O)NS(=O)(=O)c2sccc2CSC#N)n1    1.25 g/acre
CCOCc1ccsc1S(=O)(=O)NC(=O)Nc1nc(OC)cc(OC)n1    0.313 g/acre

Request: Using the record for COc1cc(OC)nc(NC(=O)NS(=O)(=O)c2sccc2COC(C)(C)C(F)(F)F)n1 , report its MED.
Result: 20 g/acre

====

# Test system: Echinochloa oryzicola
# Assay Text: Herbicidal activity against Echinochloa oryzicola assessed as dose required to cause sufficient herbicidal activity
# Format: functional
Readout Label: log10 MED (log10 of the value in g/acre)
Hello, just confirming the data are log10 of MED with units of g/acre.

Some solved entries appear below for comparison.
COc1cc(OC)nc(NC(=O)NS(=O)(=O)c2sccc2COCC(Cl)(Cl)Cl)n1    0.70
CNC(=O)NCc1ccsc1S(=O)(=O)NC(=O)Nc1nc(OC)cc(OC)n1    1.00

For each of the compounds below, state log10 MED.
1. COc1cc(OC)nc(NC(=O)NS(=O)(=O)c2sccc2COc2ccccc2)n1
2. COc1cc(OC)nc(NC(=O)NS(=O)(=O)c2sccc2CSC)n1
3. COc1cc(OC)nc(NC(=O)NS(=O)(=O)c2sccc2COCCO)n1
4. C=CCOCc1ccsc1S(=O)(=O)NC(=O)Nc1nc(OC)cc(OC)n1
5. COc1cc(OC)nc(NC(=O)NS(=O)(=O)c2sccc2COCC(F)(F)F)n1
6. COc1cc(OC)nc(NC(=O)NS(=O)(=O)c2sccc2CNC(=O)CCl)n1
7. COc1cc(OC)nc(NC(=O)NS(=O)(=O)c2sccc2COCCCCl)n1
8. COc1cc(OC)nc(NC(=O)NS(=O)(=O)c2sccc2Cn2cc(C(F)(F)F)ccc2=O)n1

Result:
0.40
-0.50
-0.20
-0.20
0.40
1.00
0.10
1.60

For each of the compounds below, state log10 MED.
1. COc1nc(NC(=O)NS(=O)(=O)c2snc(C)c2COCCF)nc(OC)n1
2. COc1cc(C)nc(NC(=O)NS(=O)(=O)c2sccc2COCCF)n1
3. COc1cc(OC)nc(NC(=O)NS(=O)(=O)c2sccc2COCCF)n1
4. COc1cc(OC)nc(NC(=O)NS(=O)(=O)c2sccc2COc2cccc(C(F)(F)F)c2)n1
5. COc1cc(Cl)nc(NC(=O)NS(=O)(=O)c2sccc2COCCF)n1
6. COc1cc(OC)nc(NC(=O)NS(=O)(=O)c2sccc2COC(C)C(F)(F)F)n1 (stereo unspecified)
7. COc1cc(OC)nc(NC(=O)NS(=O)(=O)c2sccc2COC(CF)CF)n1
8. COc1cc(OC)nc(NC(=O)NS(=O)(=O)c2sccc2COCC(F)(F)C(F)(F)F)n1

Result:
[0.10, -1.71, -0.50, 0.70, -0.81, 0.70, 0.10, 0.70]

For each of the compounds below, state log10 MED.
1. COC(=O)NCc1ccsc1S(=O)(=O)NC(=O)Nc1nc(OC)cc(OC)n1
2. COc1cc(OC)nc(NC(=O)NS(=O)(=O)c2sccc2CN(C)C)n1

Result:
[1.30, 1.30]

====

Assign log10 of MED to each entry below.
# Test system: Echinochloa oryzicola
# Assay Text: Herbicidal activity against Echinochloa oryzicola assessed as dose required to cause sufficient herbicidal activity
# Assay type: functional
Hello, just confirming the data are log10 of MED with units of g/acre.

Some solved entries appear below for comparison.
COc1nc(C)nc(NC(=O)NS(=O)(=O)c2sccc2COCCF)n1    -0.50
COc1nc(NC(=O)NS(=O)(=O)c2scnc2COCCF)nc(OC)n1    0.40
COc1nc(NC(=O)NS(=O)(=O)c2csnc2COCCF)nc(OC)n1    0.70

For each of the compounds below, state log10 of MED.
1. COc1cc(OC)nc(NC(=O)NS(=O)(=O)c2sccc2COCCCF)n1
2. CCN(C)Cc1ccsc1S(=O)(=O)NC(=O)Nc1nc(OC)cc(OC)n1
3. COc1nc(NC(=O)NS(=O)(=O)Cc2sccc2COCCF)nc(OC)n1
4. C#CCOCc1ccsc1S(=O)(=O)NC(=O)Nc1nc(OC)cc(OC)n1
5. COc1cc(OC)nc(NC(=O)NS(=O)(=O)c2sccc2CC#N)n1
6. COC(=O)Cc1ccsc1S(=O)(=O)NC(=O)Nc1nc(OC)cc(OC)n1

Result:
1: -0.50; 2: 1.30; 3: 1.90; 4: -0.20; 5: -0.20; 6: 0.10

For each of the compounds below, state log10 of MED.
1. COc1nc(NC(=O)NS(=O)(=O)c2ccccc2COCCF)nc(OC)n1
2. COc1nc(NC(=O)NS(=O)(=O)c2c(COCCF)cnn2C)nc(OC)n1

Result:
1. 1.60
2. -0.20

====

Assign MED to each entry below.
# Tested on: Schoenoplectiella juncoides
# Assay Text: Herbicidal activity against Schoenoplectiella juncoides assessed as dose required to cause sufficient herbicidal activity after 5 to 7 days
# Type: functional
Quick note: unit goes after the number.

Some solved entries appear below for comparison.
COC(=O)NCc1ccsc1S(=O)(=O)NC(=O)Nc1nc(OC)cc(OC)n1    1.25 g/acre
COc1cc(OC)nc(NC(=O)NS(=O)(=O)c2sccc2COCC(F)(F)C(F)(F)F)n1    1.25 g/acre
CCOCc1ccsc1S(=O)(=O)NC(=O)Nc1nc(OC)cc(OC)n1    0.0391 g/acre
CNC(=O)NCc1ccsc1S(=O)(=O)NC(=O)Nc1nc(OC)cc(OC)n1    20 g/acre
COc1nc(C)nc(NC(=O)NS(=O)(=O)c2sccc2COCCF)n1    0.313 g/acre

For each of the molecules below, state MED.
1. COc1nc(NC(=O)NS(=O)(=O)c2c(COCCF)cnn2C)nc(OC)n1
2. COc1cc(OC)nc(NC(=O)NS(=O)(=O)c2sccc2COCC2CCCO2)n1 (stereo unspecified)
3. COc1cc(Cl)nc(NC(=O)NS(=O)(=O)c2sccc2COCCF)n1

Result:
1. 0.313 g/acre
2. 5 g/acre
3. 0.156 g/acre

For each of the molecules below, state MED.
1. COc1cc(OC)nc(NC(=O)NS(=O)(=O)c2sccc2COCCF)n1
2. C#CCOCc1ccsc1S(=O)(=O)NC(=O)Nc1nc(OC)cc(OC)n1

Result:
["0.0391 g/acre", "0.0781 g/acre"]

====

# Test system: Oryza sativa
# Assay Text: Toxicity in two leaf stage of Oryza sativa var. Nihonbare (rice) assessed as dose required to selectivity to Oryza sativa
# Format: organism-based
# Measurement Context: in vivo
Readout Label: log10(MED) (log10 of the value in g/acre)
Hello, just confirming the data are log10 of MED with units of g/acre.

Cc1cc(C)nc(NC(=O)NS(=O)(=O)c2sccc2COCCF)n1    -0.81
CCOC(=O)COCc1ccsc1S(=O)(=O)NC(=O)Nc1nc(OC)cc(OC)n1    0.10
CCN(C)Cc1ccsc1S(=O)(=O)NC(=O)Nc1nc(OC)cc(OC)n1    1.30

For each of the compounds below, state log10(MED).
1. O=C(Nc1nc(OC(F)F)cc(OC(F)F)n1)NS(=O)(=O)c1sccc1COCCF
2. COc1cc(OC)nc(NC(=O)NS(=O)(=O)c2sccc2COCC(F)(F)F)n1
3. CCN(CC)Cc1ccsc1S(=O)(=O)NC(=O)Nc1nc(OC)cc(OC)n1
4. CNC(=O)NCc1ccsc1S(=O)(=O)NC(=O)Nc1nc(OC)cc(OC)n1
5. COc1cc(OC)nc(NC(=O)NS(=O)(=O)c2sccc2COCCCF)n1
6. COc1cc(OC)nc(NC(=O)NS(=O)(=O)c2sccc2COC(C)(C)C(F)(F)F)n1
7. CCOCc1ccsc1S(=O)(=O)NC(=O)Nc1nc(OC)cc(OC)n1

Result:
1. 0.70
2. 0.10
3. -0.20
4. 0.40
5. -0.20
6. 0.40
7. -0.81

For each of the compounds below, state log10(MED).
1. COc1cc(OC)nc(NC(=O)NS(=O)(=O)c2sccc2COc2ccccc2)n1
2. COc1cc(OC)nc(NC(=O)NS(=O)(=O)c2sccc2COCCO)n1

Result:
[-0.20, -0.50]

====

# Test system: Schoenoplectiella juncoides
# Assay Text: Herbicidal activity against Schoenoplectiella juncoides assessed as dose required to cause sufficient herbicidal activity after 5 to 7 days
# Format: functional
Label T for high-side MED (at or above 2 g/acre) and F for low-side MED (below it).

Check out these entries, answers already filled in.
COc1cc(OC)nc(NC(=O)NS(=O)(=O)c2cscc2COCCF)n1    F
COc1nc(NC(=O)NS(=O)(=O)Cc2sccc2COCCF)nc(OC)n1    T
COc1cc(OC)nc(NC(=O)NS(=O)(=O)c2sccc2COCC(F)(F)C(F)(F)C(F)(F)F)n1    T

Request: Could you please find out whether COc1cc(OC)nc(NC(=O)NS(=O)(=O)c2sccc2COc2ccccc2)n1 has MED that meets 2 g/acre or exceeds it?
Result: F

Request: # iterate: COc1nc(NC(=O)NS(=O)(=O)c2scnc2COCCF)nc(OC)n1
Result: T

Request: # iterate: COc1cc(OC)nc(NC(=O)NS(=O)(=O)c2sccc2CNC(=O)CCl)n1
Result: T

Request: # iterate: COc1cc(OC)nc(NC(=O)NS(=O)(=O)c2sccc2Cn2cccn2)n1
Result: F

Request: # iterate: COc1nc(NC(=O)NS(=O)(=O)c2ccccc2COCCF)nc(OC)n1
Result: T

Request: # iterate: COc1cc(OC)nc(NC(=O)NS(=O)(=O)c2sccc2Cn2cc(C(F)(F)F)ccc2=O)n1
Result: T

Request: # iterate: COc1cc(OC)nc(NC(=O)NS(=O)(=O)c2sccc2COCC(F)(F)Cl)n1
Result: T

Request: # iterate: COC(=O)Cc1ccsc1S(=O)(=O)NC(=O)Nc1nc(OC)cc(OC)n1
Result: F
